Origin of the recorded values: patent US20230272056A1

Documented koff across a set of binders
systemName: T1, human LAP-TGFB1 Fc fusion (human)
T1 construct: also called human LAP-TGFβ1-Fc; human LAP-TGFβ-Fc isoform 1
T1 sequence (chain, as listed by the source limits assumed): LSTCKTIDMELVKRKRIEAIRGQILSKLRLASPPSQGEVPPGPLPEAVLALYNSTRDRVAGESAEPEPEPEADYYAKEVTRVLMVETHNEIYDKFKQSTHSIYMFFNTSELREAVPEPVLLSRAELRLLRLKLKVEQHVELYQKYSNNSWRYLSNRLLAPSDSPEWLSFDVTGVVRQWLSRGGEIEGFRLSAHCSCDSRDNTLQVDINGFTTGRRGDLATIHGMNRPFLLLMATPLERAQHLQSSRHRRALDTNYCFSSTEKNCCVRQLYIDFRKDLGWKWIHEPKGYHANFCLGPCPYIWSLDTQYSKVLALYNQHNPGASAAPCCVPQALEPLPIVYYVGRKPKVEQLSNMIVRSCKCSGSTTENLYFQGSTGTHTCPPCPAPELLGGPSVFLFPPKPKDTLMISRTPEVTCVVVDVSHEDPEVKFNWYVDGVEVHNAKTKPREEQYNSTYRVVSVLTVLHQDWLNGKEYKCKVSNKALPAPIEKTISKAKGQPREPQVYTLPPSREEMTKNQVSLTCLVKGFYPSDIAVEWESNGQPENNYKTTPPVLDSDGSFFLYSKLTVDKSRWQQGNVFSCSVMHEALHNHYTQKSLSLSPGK
testName: BLI off-rate screen
Description: The Fab mutants including a positive control, 20E6 Fab, and a negative control Fab (Molecular Innovations, catalog HU-FAB-4510) were diluted to 200 nM in assay buffer and loaded to FAB2G sensors for 180 seconds followed by a one-hour incubation at room temperature in assay buffer to equilibrate the tips. […]
attributeMeasured: koff (s⁻¹)

>>> numericreadout("VL R53D (35BIT) (Fab, V domains shown, Heavy chain: parental 20E6 Fab HC, implied) VH: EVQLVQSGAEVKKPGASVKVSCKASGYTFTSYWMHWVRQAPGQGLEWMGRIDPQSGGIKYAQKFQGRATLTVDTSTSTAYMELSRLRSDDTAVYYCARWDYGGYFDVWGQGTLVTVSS VL: DIQMTQSPSSLSASVGDRVTITCRASQDITNYLNWYQQKPGKAVKLLIYYTSDLHSGVPSRFSGSGSGTDYTLTISSLQPEDFATYFCQQGDTLPWTFGQGTKLEIKR")
0.0341
>>> numericreadout("VH H35K (30BIT) (Fab, V domains shown, Light chain: parental 20E6 LC, implied) VH: EVQLVQSGAEVKKPGASVKVSCKASGYTFTSYWMKWVRQAPGQGLEWMGRIDPQSGGIKYAQKFQGRATLTVDTSTSTAYMELSRLRSDDTAVYYCARWDYGGYFDVWGQGTLVTVSS VL: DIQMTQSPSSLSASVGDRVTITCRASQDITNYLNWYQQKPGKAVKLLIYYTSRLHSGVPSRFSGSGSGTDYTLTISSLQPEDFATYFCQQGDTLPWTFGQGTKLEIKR")
0.0548
>>> numericreadout("VH G57E (63BIT) (Fab, V domains shown, Light chain: parental 20E6 LC, implied) VH: EVQLVQSGAEVKKPGASVKVSCKASGYTFTSYWMHWVRQAPGQGLEWMGRIDPQSGEIKYAQKFQGRATLTVDTSTSTAYMELSRLRSDDTAVYYCARWDYGGYFDVWGQGTLVTVSS VL: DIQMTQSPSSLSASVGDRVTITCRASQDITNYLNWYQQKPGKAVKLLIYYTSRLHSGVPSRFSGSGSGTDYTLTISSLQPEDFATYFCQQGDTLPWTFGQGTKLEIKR")
0.0393
